B1: glmS ribozyme (parent)
chain: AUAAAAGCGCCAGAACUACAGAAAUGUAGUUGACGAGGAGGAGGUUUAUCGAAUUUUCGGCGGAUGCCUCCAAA

- Variants of: B1
- Run Description: self-cleavage kobs at 640 uM GlcN6P; higher = faster cleavage; RNA array
- Test Context: with glucosamine-6-phosphate
Variants at the floor of the assay were thinned out.
So I've got a bunch of variants here, and I need their self-cleavage kobs at 640 uM GlcN6P values.

Prompt: Note down self-cleavage kobs at 640 uM GlcN6P recorded for AUAAAACCGCCAGAACUACAGAAAUGUAGUUGACGAGGAGGAGGUUUAUCGAAUUUUCCGCGGAUGCCUCCAAA [G7C G59C]
Completion: < 1e-05 s⁻¹

Prompt: Note down self-cleavage kobs at 640 uM GlcN6P recorded for AUAAAAGCGCCAGAACUACAGAAAUGUAGUAGAUGAGGAGGCGGUUUUUCGAAUUUUCGGCUGAUGCCUCCAAA [U31A C34U A42C A48U G62U]
Completion: < 1e-05 s⁻¹

Prompt: Note down self-cleavage kobs at 640 uM GlcN6P recorded for AUAAAAGCGGCAUAACUACAGAAAUGUAGUUGACGAGGAGUAGGUUUAGCGAAUUUUCGGCGGAUGCCUCCAAA [C10G G13U G41U U49G]
Completion: < 1e-05 s⁻¹

Prompt: Note down self-cleavage kobs at 640 uM GlcN6P recorded for AUAAAAGCGCCAGAACUACAGAAAUGUACGUGUCGAGGAGGAGGUUUAUCGAAUUUUUGGCGGAUGCCUCCAAA [G29C U30G A33U C58U]
Completion: < 1e-05 s⁻¹

Prompt: Note down self-cleavage kobs at 640 uM GlcN6P recorded for AUAAAAGCGUGAGGACUACAGAAAUGUAGUUGACGAGGAGGACGUUUAUCGACUUUUCGGCGGAUGCCUCCAAA [C10U C11G A14G G43C A53C]
Completion: < 1e-05 s⁻¹

Prompt: Note down self-cleavage kobs at 640 uM GlcN6P recorded for AUAAAAGCGCCAGAACUACAGAAAUGUAAUUGACUAGGAGGAGGUUUAUCGAAUUUUCGGCGGAUGCCUCCAAA [G29A G35U]
Completion: < 1e-05 s⁻¹

Prompt: Note down self-cleavage kobs at 640 uM GlcN6P recorded for AUAAAAGCGCCAGAACUACAGAAAUGUAGUUGACGCGGAGGAGGUUUAUCGAAUUUUCGGCGAAUACCUCCAAA [A36C G63A G66A]
Completion: < 1e-05 s⁻¹

Prompt: Note down self-cleavage kobs at 640 uM GlcN6P recorded for AUAAAAGCGCCAGUACUACAGAAAUGUAGCUGACGAGGAGGAAGUUUAUCGAAUUUUCGGCGGAUGCCUCCAAA [A14U U30C G43A]
Completion: < 1e-05 s⁻¹

Prompt: Note down self-cleavage kobs at 640 uM GlcN6P recorded for AUAAAAGCGCCCGAACUACAGAAAUGUAGUUGACGAGGAGGAGGUUUAUCGAAUUUUCGGCGGCUGCAUCAAAA [A12C A64C C68A C71A]
Completion: < 1e-05 s⁻¹

Prompt: Note down self-cleavage kobs at 640 uM GlcN6P recorded for AUAAAAGCGCCAGAACUACAGAAAUGUAGUUGACGAGGAGGAGGGUUAUCCAAUUUUCGGCGGCUGCCUCCAAA [U45G G51C A64C]
Completion: < 1e-05 s⁻¹

Prompt: Note down self-cleavage kobs at 640 uM GlcN6P recorded for AUAAAAGCCCCAUAACUACAGAAAUGUAGUUGACGAGGAGGAGGUUUAUCGAAUUUUCGGCGGAUGCCUCCAAA [G9C G13U]
Completion: < 1e-05 s⁻¹

Prompt: Note down self-cleavage kobs at 640 uM GlcN6P recorded for AUAAAAGCGCCAGAACUACAGAAAUGUAGUUGACGAGGAAGACGUUUAUCGAAUUUUCGGCGGAUGCCUCCAAA [G40A G43C]
Completion: < 1e-05 s⁻¹

Prompt: Note down self-cleavage kobs at 640 uM GlcN6P recorded for AUAAAAGCGUCAGCACUACAGAAAUGUAGUUGACGGGGAGAAGGUUUAUCGAAUUUUCGGCGGAUGCCUCCAAA [C10U A14C A36G G41A]
Completion: < 1e-05 s⁻¹

Prompt: Note down self-cleavage kobs at 640 uM GlcN6P recorded for AUAAAAGCGCCAUAACUACAGAAAUGUAGUUGACUAUGAGGAGGUUUAUCGAAUUUUCGGCGGAUGCCUCCAAA [G13U G35U G37U]
Completion: < 1e-05 s⁻¹

Prompt: Note down self-cleavage kobs at 640 uM GlcN6P recorded for AUAAAAGCGCCAGAACUACAGAAAUGUAGUUCACGAGGAGGUGGUUUAUCGAGUUUACGGCGGGUGCCUCCAAA [G32C A42U A53G U57A A64G]
Completion: < 1e-05 s⁻¹

Prompt: Note down self-cleavage kobs at 640 uM GlcN6P recorded for AUAAAAGCGCCGGAACUACAGAAAUGUAGUUGACGAGGAGGAGGUUUAUCGAAUUCUCGGCGGAUGCCUCCAAA [A12G U56C]
Completion: 3.18e-05 s⁻¹

Prompt: Note down self-cleavage kobs at 640 uM GlcN6P recorded for AUAAAAGCGCCAGAACUACAGAAAUGUAGUUGACGAGGAGGAGGUUUAUCGAAUUUGCGGCGGAUGCGUCCAAA [U57G C68G]
Completion: 4.72e-05 s⁻¹

Prompt: Note down self-cleavage kobs at 640 uM GlcN6P recorded for AUAAAAGCGCUAGAACUACAGAAAUGUAGUUGACGAGGAGGAGGUUUAUCGAAUUAUCGGCGGAUGCCUGCAAA [C11U U56A C70G]
Completion: 0.000217 s⁻¹

Prompt: Note down self-cleavage kobs at 640 uM GlcN6P recorded for AUAAAAGCGCCAAAACUACAGAAAUGUAGUUGACGAGGAGGAGGUUUAUCGAAUUUUCGGCGGAUGUCUCCAAA [G13A C67U]
Completion: 4.93e-05 s⁻¹

Prompt: Note down self-cleavage kobs at 640 uM GlcN6P recorded for AUAAAAGCGCAAGAACUACAGAAAUGUAGUUGACGAGGAGGAGGUUUAUCGAAUUAUCGGCGGAUGCCUUAAAA [C11A U56A C70U C71A]
Completion: 0.000256 s⁻¹

Prompt: Note down self-cleavage kobs at 640 uM GlcN6P recorded for AUAAAAGCGCCAGGACUACAGAAAUGUAGUUGACGAGGAGGAGGUUUAUCGAAAUUUCGGCGGAUGCCUCCAAA [A14G U54A]
Completion: 0.027 s⁻¹

Prompt: Note down self-cleavage kobs at 640 uM GlcN6P recorded for AUAAAAGCGCCAUAACUACAGAAAUGUAGUUGACGAGGAGGAGGUUUAUCCAAUUUUCGGCCGAUGCCUCCAAA [G13U G51C G62C]
Completion: < 1e-05 s⁻¹

Prompt: Note down self-cleavage kobs at 640 uM GlcN6P recorded for AUAAAAGCGCCAGACCUACAGAAAUGUAGUUGACGAGGAGGUGGUGUAUGGAAUUUUCGGCGGAUGCCUCCAAA [A15C A42U U46G C50G]
Completion: < 1e-05 s⁻¹

Prompt: Note down self-cleavage kobs at 640 uM GlcN6P recorded for AUAAAAGCGCCAGAACUACAGAAAUGUAGUUGACGCGGAGCAGGUUUAUUGAAUUUUCGGCGGUUGCAUCCAAA [A36C G41C C50U A64U C68A]
Completion: < 1e-05 s⁻¹
